IC90 tested on Human immunodeficiency virus type 1 protease (Human immunodeficiency virus 1): recorded values
Write the value in nM as a bare number.

Use the examples below as a reference point.
COc1cc(CN2C(=O)N(Cc3cccc(C(=O)Nc4ccccn4)c3)[C@H](Cc3ccccc3)[C@H](O)[C@@H](O)[C@H]2Cc2ccccc2)cc(OC)c1 | 129
CC(C)(C)NC(=O)c1cccc(CN2C(=O)N(Cc3cccc(N)c3)[C@H](Cc3ccccc3)[C@H](O)[C@@H](O)[C@H]2Cc2ccccc2)c1 | 114

Query molecule follows.
Give the reported IC90 for `O=C(Nc1ccccn1)c1cccc(CN2C(=O)N(Cc3cccc([N+](=O)[O-])c3)[C@H](Cc3ccccc3)[C@H](O)[C@@H](O)[C@H]2Cc2ccccc2)c1` (system: Human immunodeficiency virus type 1 protease (Human immunodeficiency virus 1)).
97.5
